Recorded IC50 for the following compounds
# System: Prostate carcinoma cell line PC-3
# measurementDescription: In vitro prostate carcinoma cell proliferation inhibition assay (MTT)
# Type: cell-based, human
# details: Homo sapiens, 72 h; PC-3, 3 days incubation, MTT; read-out: IC50 PC-3
# Protocol: In vitro prostate carcinoma cell proliferation inhibition assay Prostate carcinoma cell line PC-3 cells were suspended in Ham's F-12K medium (Flow Laboratories or Dainippon Pharmaceutical Co,. Ltd) supplemented with 10% fetal calf serum, and seeded in a 96-well microtiter plate (5000 cells/50 or 75 μl/well). […] Following addition of a thiazolyl-tetrazolium (MTT) solution, absorbance based on the viable cell number was determined "Tada et al., Journal of Immunological Methods, 93, 157 (1986)". […]
measurementKind: IC50 (nM)

[[record]]
smilesstring = "Cc1cccc2nc(SCc3ccc(C(=O)c4ccc(CN5CCN(C)CC5)cc4)cc3)n(C)c(=O)c12"
measurementkind = "IC50"
unittext = "nM"
resultmodifier = "<"
reportedvalue = 1.52

[[record]]
smilesstring = "Cn1ncc2c(c(Cl)c(Cl)n2Cc2ccc(C(=O)c3ccc(Cl)cc3)cc2)c1=O"
measurementkind = "IC50"
unittext = "nM"
resultmodifier = "="
reportedvalue = 6

[[record]]
smilesstring = "Cc1nc2n(Cc3ccc(C(=O)c4ccc(Cl)cc4)cc3)ccn2c(=O)c1C(C)C"
measurementkind = "IC50"
unittext = "nM"
resultmodifier = "="
reportedvalue = 3

[[record]]
smilesstring = "CCn1c(SC)nc2c(cnn2Cc2ccc(C(=O)c3ccc(OC)cc3)cc2)c1=O"
measurementkind = "IC50"
unittext = "nM"
resultmodifier = "="
reportedvalue = 2

[[record]]
smilesstring = "Cc1cccc2nc(SCc3ccc(C(=O)c4ccc(C(=O)N5CCN(C)CC5)cc4)cc3)n(C)c(=O)c12"
measurementkind = "IC50"
unittext = "nM"
resultmodifier = "<"
reportedvalue = 1.52

[[record]]
smilesstring = "Cc1nn(Cc2ccc(C(=O)c3ccc(Cl)cc3)cc2)c2cnn(C)c(=O)c12"
measurementkind = "IC50"
unittext = "nM"
resultmodifier = "="
reportedvalue = 2

[[record]]
smilesstring = "CCn1cnc2c(c(C)cn2Cc2ccc(C(=O)c3ccc(Cl)cc3)cc2)c1=O"
measurementkind = "IC50"
unittext = "nM"
resultmodifier = "<"
reportedvalue = 1.52

[[record]]
smilesstring = "Cc1cn(C)c2nc(SCc3ccc(C(=O)c4ccc(F)cc4)cc3)n(C)c(=O)c12"
measurementkind = "IC50"
unittext = "nM"
resultmodifier = "="
reportedvalue = 5


---

# System: Prostate carcinoma cell line PC-3
# measurementDescription: In vitro prostate carcinoma cell proliferation inhibition assay (MTT)
# Type: cell-based, human
# details: Homo sapiens, 72 h; PC-3, 3 days incubation, MTT; read-out: IC50 PC-3
# maps each entry to its IC50
measurementKind: IC50 (nM)

[[record]]
smilesstring = "Cc1cn(Cc2ccc(C(=O)c3ccc(Cl)cc3)cc2)c2ncn(C)c(=O)c12"
unittext = "nM"
resultmodifier = "="
reportedvalue = 2

[[record]]
smilesstring = "Cc1c[nH]c2nc(SCc3ccc(C(=O)c4ccc(Cl)cc4)cc3)[nH]c(=O)c12"
unittext = "nM"
resultmodifier = "="
reportedvalue = 9

[[record]]
smilesstring = "Cc1c(SCc2ccc(C(=O)c3ccc(C(F)(F)F)cc3)cc2)nc2n(c1=O)CCCS2"
unittext = "nM"
resultmodifier = "="
reportedvalue = 6.2

[[record]]
smilesstring = "Cc1cn(C)c2nc(SCc3ccc(C(=O)c4ccc(Cl)cc4)cc3)n(C)c(=O)c12"
unittext = "nM"
resultmodifier = "<"
reportedvalue = 1.52

[[record]]
smilesstring = "O=C(c1ccc(Cl)cc1)c1ccc(Cn2ccn3c(=O)c4c(nc23)CCCC4)cc1"
unittext = "nM"
resultmodifier = "="
reportedvalue = 1.9

